- Tested on: CEM cells
- test.name: Apoptotic cell death by DNA fragmentation, CEM
- Format: cell-based, human
- reported.conditions: Homo sapiens, CCRF-CEM, ABT-199 alone, read-out: concentration inducing 50% apoptotic cell death
measured.metric: EC50

For the compound CC1(C)CCC(CN2CCN(c3ccc(C(=O)NS(=O)(=O)c4ccc(NCC5CCOCC5)c([N+](=O)[O-])c4)c(Oc4cnc5[nH]ccc5c4)c3)CC2)=C(c2ccc(Cl)cc2)C1 , what EC50 is on record?
5 to 10 µM
